Settings: buffer; pH 7.4; 200.0 µM
Quick reference: solubility kinetic of the listed items.

# example entries with known answers
# Molecule, Reported
measured = [
    ("Cl.O=C1C2CCCC1C(N1CCCCC1)CC2 (stereo not drawn)", "> 38.7 µg/mL"),
    ("CCOC(=O)C1CCCN(C(=S)Nc2ccc(S(=O)(=O)N3CCOCC3)cc2)C1 (stereo not drawn)", "> 66.2 µg/mL"),
]

**Q:** Look up and state reported solubility kinetic for "Cc1cc(C(=O)CCC(=O)NCC(=O)Nc2c(C)cccc2C)c(C)s1"
**A:** > 55.9 µg/mL

----------
Quick reference: solubility kinetic of the listed items.
Settings: buffer; pH 7.4; 200.0 µM
Record the value in µg/mL, omitting the unit from your answer.

# example entries with known answers
# Molecule, solubility kinetic [µg/mL]
rows = [
    ("Cc1cc(NC(=O)C(=O)NCc2cccc(Cl)c2)no1", 3.2),
    ("CC1CCCN(S(=O)(=O)c2ccc3oc(=O)ccc3c2)C1 (stereo not drawn)", 20),
    ("Cc1cccc(-c2nc(C#N)c(N3CCCCC3)o2)c1", 0.4),
]

**Q:** Look up and state reported solubility kinetic for "O=C(Nc1cccnc1Cl)c1ccc(Cl)cc1"
**A:** 35
